Values compiled from PubChem BioAssay (Tox21).

Method Summary: qHTS assay to identify small molecule antagonists of the estrogen related receptor (ERR) signaling pathway from Tox21 library (AID 1224848); note: nearly all actives have a fitted effect of over 50% in size
Conditions: ERR reporter cell line, luciferase antagonist mode, 18 h; series mostly up to 92.4 µM
Records with an inconclusive call do not appear. Active and inactive are the calls of the source. Calls come from the whole dose curve; as a rule, active = well fitted inhibition curve with a large enough effect in the repeat runs; inconclusive = weak or mixed curves; inactive = no such curve, though single readings can be large or run the other way.
Allowed answers: 1 = active, 0 = inactive

[ask] Which outcome was assigned to CC(C)(C)c1ccc(OCC2CO2)cc1 (stereo unspecified) in this test?
[reply] 0

[ask] Which outcome was assigned to CC(=O)CC(=O)c1ccccc1 in this test?
[reply] 0

[ask] Which outcome was assigned to NCc1ccccc1 in this test?
[reply] 0

[ask] Which outcome was assigned to O=C(O)[C@@H]1[C@H]2C[C@H]3c4[nH]c5ccccc5c4CCN3C[C@@H]2CC[C@@H]1O in this test?
[reply] 0

[ask] Which outcome was assigned to CCCCOC(=O)/C=C\C(=O)OCCCC in this test?
[reply] 0

[ask] Which outcome was assigned to O=C(O)Cn1c(C(=O)Nc2nc(-c3ccccc3Cl)cs2)cc2ccccc21 in this test?
[reply] 0

[ask] Which outcome was assigned to O=C(O)Cc1cc(I)c(Oc2ccc(O)c(I)c2)c(I)c1 in this test?
[reply] 1

[ask] Which outcome was assigned to Oc1ccc(C(O)CNCCCCCCNCC(O)c2ccc(O)c(O)c2)cc1O (stereo unspecified) in this test?
[reply] 0

[ask] Which outcome was assigned to CCN(CC)CCOC(=O)C1(c2ccccc2)CCCC1 in this test?
[reply] 0

[ask] Which outcome was assigned to N[C@H]1C(O)O[C@H](CO)[C@H](O)[C@@H]1O (stereo partly specified) in this test?
[reply] 0

[ask] Which outcome was assigned to C1=Cc2ccccc2C1 in this test?
[reply] 0

[ask] Which outcome was assigned to CN(C)CCCOc1nn(Cc2ccccc2)c2ccccc12 in this test?
[reply] 0

[ask] Which outcome was assigned to CN1CCC(=C2c3ccccc3C=Cc3ccccc32)CC1 in this test?
[reply] 0

[ask] Which outcome was assigned to CCOc1nc2cccc(C(=O)O)c2n1Cc1ccc(-c2ccccc2-c2nn[nH]n2)cc1 in this test?
[reply] 0

[ask] Which outcome was assigned to O=C(NN1CCCC1)NS(=O)(=O)c1ccc(Cl)cc1 in this test?
[reply] 0

[ask] Which outcome was assigned to O=C(O)c1cccc(N(Cc2cccnc2)c2ccc(OC(F)F)c(OC(F)F)c2)c1 in this test?
[reply] 1

[ask] Which outcome was assigned to NC(N)=N/N=C/c1c(Cl)cccc1Cl in this test?
[reply] 0

[ask] Which outcome was assigned to COC(=O)C(C)=O in this test?
[reply] 0

[ask] Which outcome was assigned to NC1CCN(c2nc3c(cc2F)c(=O)c(C(=O)O)cn3-c2ccc(F)cc2F)C1 (stereo unspecified) in this test?
[reply] 0

[ask] Which outcome was assigned to CC(C)NCC(O)c1cc(O)cc(O)c1 (stereo unspecified) in this test?
[reply] 0

[ask] Which outcome was assigned to OC(CCN1CCCCC1)(c1ccccc1)C1CCCCC1 (stereo unspecified) in this test?
[reply] 0

[ask] Which outcome was assigned to NC(=S)N/N=C/c1cccnc1 in this test?
[reply] 0

[ask] Which outcome was assigned to O=C(O)C(c1ccc(Cl)cc1)c1ccc(Cl)cc1 in this test?
[reply] 0

[ask] Which outcome was assigned to Cc1cccc(OCCOc2cccc(C)c2)c1 in this test?
[reply] 0

[ask] Which outcome was assigned to Nc1ccc(C(=O)N2CC3CC(CN(Cc4ccccc4)C3)C2)cc1 in this test?
[reply] 0

[ask] Which outcome was assigned to Nc1ccc(C(=O)Nc2ccccc2N)cc1 in this test?
[reply] 0

[ask] Which outcome was assigned to CC(CN)CCCN (stereo unspecified) in this test?
[reply] 0

[ask] Which outcome was assigned to Cc1cc(CC(=O)O)c(C)n1-c1ccc(Cl)cc1 in this test?
[reply] 0

[ask] Which outcome was assigned to O=C(c1ccc(O)cc1)c1ccc(O)cc1 in this test?
[reply] 0

[ask] Which outcome was assigned to C#CCOC(=O)[C@@H](C)Oc1ccc(Oc2ncc(Cl)cc2F)cc1 in this test?
[reply] 0

[ask] Which outcome was assigned to CC(=O)N(CC(=O)N(C)C)c1ccccc1 in this test?
[reply] 0

[ask] Which outcome was assigned to CCC(=O)OC(C)(C)C1CC=C(C)CC1 (stereo unspecified) in this test?
[reply] 0

[ask] Which outcome was assigned to CCOc1ccc2[nH]cc(C(=O)NCc3ccccc3)c(=O)c2n1 in this test?
[reply] 1

[ask] Which outcome was assigned to CC(C)(C)c1cc(O)c(C(C)(C)C)cc1O in this test?
[reply] 1

[ask] Which outcome was assigned to O=C1[C@H](CC[C@H](O)c2ccc(F)cc2)[C@@H](c2ccc(O)cc2)N1c1ccc(F)cc1 in this test?
[reply] 1

[ask] Which outcome was assigned to Cc1ccc(C(=O)C(C)CN2CCCCC2)cc1 (stereo unspecified) in this test?
[reply] 0
